Test system: HCV 1b_Huh-Luc/Neo-ET cell line persistently expressing a bicistronic genotype 1b replicon in Huh 7 cells
TEST_NAME: HCV replicon assay (luciferase readout, 72 h)
Type: cell-based, HCV genotype 1b
ASSAY_CONDITIONS: Hepatitis C virus, Huh-7, 72 h, read-out: Inhibition of HCV genotype 1b
ATTRIBUTE_MEASURED: EC50

QUERY: What value of measured EC50 is listed for COC(=O)N[C@H](C(=O)N[C@@H](C)c1ncc(-c2ccc(C#Cc3ccc(-c4cnc([C@@H]5CCCN5C(=O)[C@@H](NC(=O)OC)[C@@H](C)OC)[nH]4)cc3)cc2)[nH]1)[C@@H](C)OC ?
RESULT: < 1 nM

QUERY: What value of measured EC50 is listed for CC(C)(C)OC(=O)N[C@@H](C(=O)N1CCC[C@H]1C(=O)NCCc1ccc(C#Cc2cnc([C@@H]3CCCN3C(=O)[C@H](NC(=O)OC(C)(C)C)c3ccccc3)[nH]2)cc1)c1ccccc1 ?
RESULT: < 1 nM

QUERY: What value of measured EC50 is listed for COC(=O)NC(C)(C)C(=O)N1CCC[C@H]1c1ncc(-c2ccc(C#Cc3ccc4nc([C@@H]5CCCN5C(=O)C(C)(C)NC(=O)OC)[nH]c4c3)cc2)[nH]1 ?
RESULT: 10 to 999 nM
